- STUDY_CONDITIONS: 298.15 K; 101.33 kPa; Liquid; Cone and plate viscometry
Entries and their viscosity

COMPOUND | UNIT_STRING | viscosity
C1CC[NH2+]C1.CCCCCC(=O)[O-] [pyrrolidinium hexanoate] | mPa·s | 27.4
CC[NH+](C(C)C)C(C)C.O=C[O-] [ethyldiisopropylammonium formate] | mPa·s | 18
Cc1ccc[n+](C)c1C.O=C[O-] [1,2,3-trimethylpyridinium formate] | mPa·s | 10
